// data source = patent US7446095B2

Test system: caspase-3 activation (DEVDase activity)
Experiment: dATP-dependent Cyt c-induced caspase-3 (DEVDase) activation in cell-free cytosolic extracts of HepG2 cells
Type: biochemical, human
Settings: cell-free extracts, peptides 750 μM, 15 min pre-treatment, high dose (165 nM) cytochrome c
Bridges are numbered along the chain shown (N, C = ends). Where no end group is shown, it is not given here.
Endpoint: Effect on high dose cytochrome c-mediated caspase activation (in words)

- Substance: "HGDLLE [Linear peptide from HSA]"
  Val: "significant inhibition"
- Substance: "*Cys-Cys-His-Gly-Asp-Leu-Leu-Glu-Cys* (CCHGDLLEC; disulfide 1-9) [Cyclic peptide from human serum albumin]"
  Val: "no activity"
- Substance: "RGDVLD [Linear 6-mer peptide from AFP]"
  Val: "significant inhibition"
- Substance: "*Cys-Gly-Arg-Gly-Asp-Val-Leu-Asp-Cys*"
  Val: "no activity"

----------
Test system: caspase-3 activation (DEVDase activity)
Assay: dATP-dependent Cyt c-induced caspase-3 (DEVDase) activation in cell-free cytosolic extracts of HepG2 cells
Format: biochemical, human
Settings: cell-free system, DEVDase activity; numbers are % abrogation; peptides 750 μM
Protocol: Peptides in the concentration of 750 μM were added to the cell extracts 15 min before the cytochrome c addition. Caspase activation was monitored by the cleavage of caspase-3-specific fluorogenic substrate DEVD-AMC. HepG2, human hepatocarcinoma cells and human monoblastoma cell line U937 originated from American Type Culture Collection. Cell extracts were prepared by lysing cells in a hypotonic extraction buffer. […]
Bridges are numbered along the chain shown (N, C = ends). Where no end group is shown, it is not given here.
Endpoint: Effect on the high dose Cyt c-induced caspase activation

- Substance: "*Cys-Cys-His-Gly-Asp-Leu-Leu-Glu-Cys* (CCHGDLLEC; disulfide 1-9) [Cyclic peptide from human serum albumin]"
  Val: "no effect"
- Substance: "*Cys-*Cys-Arg-Gly-Asp-Val-Leu-Asp-Cys* [apocyclin-A]"
  Val: "50-80%"
- Substance: "*Cys-Gly-Arg-Gly-Asp-Val-Leu-Asp-Cys*"
  Val: "no effect"
